Biological target: T1, SARS-CoV-2 RBD-mFc (SARS-CoV-2, UniProt P0DTC2 319-541)
T1 construct: range 319-541
Experiment: flow cytometry competition: RBD-mFc on HEK293E/ACE2 cells
testReadout: pIC50
Answers are plain numbers, as −log10 of the molar value.

Example results:
SA4050 (antibody, V domains shown) VH: QVQLVESGAEVKKPGASVKVSCKASGYTFTGYFIHWVRQAPGQGLEWMGWINPNSGGTNYAQKFQGRVTMTRDTSISTAYMELSRLRSDDTAVYYCARVPHLSGYYYEGVLGYFDYWGQGTLVTVSS VL: QSALTQPASVSGSPGQSITISCTGTSIDIGSYNFVSWYQRHPGKAPRLLIYDVSDRPSGVSNRFSGSKSANTASLTISGLQAEDEADYYCSSYTSSSLWVFGGGTKLTVL
8.53
SA4044 (antibody, V domains shown) VH: EVQLVQSGGGLIQPGGSLRLSCAASGFTVSSNYMSWVRQAPGKGLEWVSVIYSGGSTYYADSVKGRFTISRDNSKNTLHLQMNSLRAEDTAVYYCARDLPQFDGFDYWGQGTLVTVSS VL: QSALTQPPSLSVAPGRTARITCGGNNIGSKSVNWYQHMPGQAPVLVIYSDTDRPSGIPERVSGSKSGNTATLSISRVEAGDEADYYCQVWDSTTDHVVFGGGTKLTVL
8.66
SA4057 (antibody, V domains shown) VH: EVQLVQSGGGLVQPGGSLRLSCAASVITVSSNYMSWVRQAPGKGLEWVSVIYPGGSTYYADSVKGRFTISRDKSKNTLYLQMNSLRAEDTAVYYCARDLDIVGGMDVWGQGTTVTVSS VL: QLVLTQPPSVSGAPGQRVTISCTGSSSNIGAPHDVHWYQQLPGTAPRLLIYANNNRPSGVPDRFSGSKSGTSASLAITGLQDEDEADYYCQSYDSSLRAYVFGTGTKVTVL
8.38

Proceed to the following item.
q: Give the value of pIC50 reported for the following: SA3902 (antibody, V domains shown) VH: QVQLVQSGAEVRQPGASVKVSCKTSGYAFSYYHIHWVRQAPGQGLEWMGLINPGSGGTNYAQKFQGRVTLTRDTSTSTVYMDLTGLRSEDTAVYYCAGSEQPHYYANGAYRVWGQGTLVTVSS VL: DIQMTQSPSTLSASVGDRVTITCRASQSISSYLNWYQQKPGKAPKLLIYEVSTLESGVPSRFSGSRSGTEFTLTISSLQPDDFATYYCQQYDTFGGGTKVEIK
a: 8.76

These entries and their values trace back to patent KR20220054080A.
